Target under test: T1, biotin-SPAK (uncleaved human SPAK CCT domain, residues 441-545, biotinylated on the AviTag) (human, biotin on the lysine of the AviTag (…))
T1 construct: STE20/SPS1-related proline/alanine-rich kinase (SPAK), human, conserved C-terminal (CCT) domain, residues 441-545; the TEV site was not cut in this form; also called hSPAK-CCT; source: E. coli BL21-CodonPlus (DE3)-RIL, purified (HisTrap, SEC), biotinylated with BirA; not shown: His6, N-terminal, kept; AviTag, N-terminal, kept
Assay details: grating-coupled interferometry (Creoptix WAVE); waveRAPID; biotin-SPAK or biotin-OSR immobilised on streptavidin chip (about 1000 pg/mm^2), 18-mer peptide as analyte at 5 µM; 25°C, HBS EP (10 mM HEPES pH 7.4, 150 mM NaCl, 3 mM EDTA, 0.005% Tween20); 1:1 kinetic model, global fit
Applied conditions: both partners purified
Metric name: pKd
Quick note: pKd means taking -log10 of the concentration in moles per liter.

Consider the binder SEEGKPQLVGRFQVTSSK (With No Lysine kinase 4 (WNK4), 18-mer with the RFQV motif; also called 18-mer peptide; RFQV 18-mer peptide; source: synthetic peptide, bought: GL Biochem, Shanghai Ltd) [18-mer RFQV peptide derived from WNK4 (SEEGKPQLVGRFQVTSSK), unbiotinylated] and give its measured pKd.
5.96
